Item-by-item account of melting point
assay_endpoint: melting point

[
  {
    "molecule": "CN(C)C(=O)N[C@H]1CC[C@H](CN2CCN(c3cccc4c3CCC4)CC2)CC1 [Compound 8]",
    "assay_endpoint": "melting point",
    "data_value": "152 to 154 °C"
  },
  {
    "molecule": "CCC(=O)N[C@H]1CC[C@H](CCN2CCN(c3cccc4c3CCCC4)CC2)CC1 [Compound 10]",
    "assay_endpoint": "melting point",
    "data_value": "182 to 185 °C"
  },
  {
    "molecule": "NC(=O)N[C@H]1CC[C@H](CCN2CCN(c3cccc4c3CCC4)CC2)CC1 [Compound 7]",
    "assay_endpoint": "melting point",
    "data_value": "204 to 206 °C"
  },
  {
    "molecule": "CCC(=O)N[C@H]1CC[C@H](CCN2CCN(c3cccc4c3CCC4)CC2)CC1 [Compound 2]",
    "assay_endpoint": "melting point",
    "data_value": "194 to 196 °C"
  }
]

The measurements presented in this section are drawn from patent US7705003B2.
